- Tested on: MALME-3M melanoma
- experiment.notes: NCI tumour cell line growth inhibition, 48 h
property.name: TGI

Some solved cases for reference:
So what does the record say about TGI for O=C(O)c1cc(Cl)cc(Cc2cc(Cl)cc(C(=O)O)c2O)c1O ? > 100 µM

Also, CC(=N\O)/C(C)=N/O.CC(=N\O)/C(C)=N/O.[Fe].[NH2-].c1c[nH]cn1 please. > 100 µM

Further cases:
So what does the record say about TGI for C/C(=N/N)c1sc(-c2nc(C)c(/C(C)=N\N)s2)nc1C ? > 100 µM

---

- Test system: DU-145 prostate
- experiment.notes: NCI tumour cell line growth inhibition, 48 h; in the data active = GI50 below about 0.43 µM; inactive = the rest
Log the outcome using a class from active, inactive

# example entries with known answers
Check the results log: what was the call for Cc1nn(-c2ccccc2)c2nc(C)n(-c3ccc(Br)cc3)c(=O)c12 ? inactive

Also, OCC1OC(n2cnc3c(NCc4ccccc4O)ncnc32)C(O)C1O (stereo not given) please. active

Also, O=C(Nc1ccc(Cl)cc1)N1CCN(c2ccc3nncn3n2)CC1 please. inactive

Also, CCN(CC)CCCNc1cc(OC)c(OC)c2cccnc12 please. inactive

Also, CCOC(=O)CCSC1=CC(=O)c2nc3ccccc3c3ccnc1c23 please. inactive

Also, N/C(=N/S(=O)(=O)c1cc(C(=O)Nc2ccc(F)cc2)c(Cl)cc1SCc1ccccc1)Nc1ccccc1O please. inactive

Also, CC1(C)CN(CCNc2nccc(-c3c(-c4cccc(O)c4)nc4sccn34)n2)S(=O)(=O)N1 please. inactive

Also, Cc1ccc(/C(=C/C=C(C#N)C#N)Sc2nc3ccccc3s2)cc1 please. inactive

Further cases:
Check the results log: what was the call for Nc1cc(N)c2nc(-c3ccccc3)c(NCc3ccc(Cl)c(Cl)c3)nc2c1 ? inactive

Also, Nc1no[n+]([O-])c1-c1nnc2c(n1)-c1ccccc1C2=O please. inactive

All values here come from PubChem BioAssay (NCI).
